pIC50: −log10 of the molar value.
Measured metric: pIC50

Assay CYP2C9 (Homo sapiens), sample C[C@H]1CN2CCNCc3ccc(C(=O)NCC(F)F)c1c32 [(+)-19m] , pIC50 read: < 4.52

---

Measured metric: IC50

Assay CYP1A2 (Homo sapiens), sample C[C@H]1CN2CCNCc3ccc(C(=O)NCC(F)F)c1c32 [(+)-19m] , IC50 read: > 30 µM

---

- System: P-gp
- Protocol: in vitro
- Assay type: in vitro ADME
- Experimental conditions: pig, LLC-PK1
Measured metric: efflux ratio
Output: the number by itself.

Assay P-gp, sample CCC1CN2CCNCc3ccc(C(=O)NCC(F)F)c1c32 (single isomer, unassigned; (+)) [(+)-19k] , efflux ratio read: 2.16
